Where do the numbers come from? From patent US11667667B2.

Test: Pharmacokinetics in mice administrated with single compound
Format: in vivo, mice (C57BL/6J)
Details: mouse, plasma; male C57BL/6J mice, oral 10 mg/kg
ENDPOINT_NAME: AUC (µM·h)
Give just the number in µM·h; leave the unit off.

AUC for CC[C@H]1[C@@H](O)[C@@H]2[C@H](CC[C@]3(C)[C@@H]([C@H](C)CCOc4cncc(C(=O)O)c4)CC[C@@H]23)[C@@]2(C)CC[C@@H](O)C[C@@H]12 is 5.17

* * *

Biological target: Glutathione-S-transferase-labeled FXR human protein (Homo sapiens, UniProt Q96RI1)
Construct: purchased Invitrogen
Sequence (Q96RI1 whole entry): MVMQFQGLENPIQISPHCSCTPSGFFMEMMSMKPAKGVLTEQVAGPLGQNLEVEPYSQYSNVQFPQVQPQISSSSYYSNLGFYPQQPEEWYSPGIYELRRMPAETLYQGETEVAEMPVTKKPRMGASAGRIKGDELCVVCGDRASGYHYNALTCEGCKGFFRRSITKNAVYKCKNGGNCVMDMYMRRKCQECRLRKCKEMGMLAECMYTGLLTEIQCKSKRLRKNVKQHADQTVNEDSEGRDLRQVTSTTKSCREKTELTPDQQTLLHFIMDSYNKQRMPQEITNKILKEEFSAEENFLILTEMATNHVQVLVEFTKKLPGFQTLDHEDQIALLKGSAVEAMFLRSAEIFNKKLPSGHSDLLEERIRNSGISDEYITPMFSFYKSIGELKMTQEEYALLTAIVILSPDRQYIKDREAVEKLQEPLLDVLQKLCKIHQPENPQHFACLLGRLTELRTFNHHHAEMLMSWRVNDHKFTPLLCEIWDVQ
Assay: FXR biochemical experiment (AlphaScreen, coactivator recruitment)
Conditions: ratio of highest signal of the compound to that of the reference compound; read-out: FXR enzyme activity Efficacy
Please note: Emax exactly at 200% is 0 (no). Only values below 200% get 1 (yes).

These solved cases illustrate the format of a correct answer.
CC[C@H]1[C@@H](O)[C@@H]2[C@H](CC[C@]3(C)[C@@H]([C@H](C)CCN4CC(C(=O)O)CCC4=O)CC[C@@H]23)[C@@]2(C)CC[C@@H](O)C[C@@H]12 (stereo partly drawn) ... 0 (no)
CC[C@H]1[C@@H](O)[C@@H]2[C@H](CC[C@]3(C)[C@@H]([C@H](C)CCOc4ccc(C(=O)O)cn4)CC[C@@H]23)[C@@]2(C)CC[C@@H](O)C[C@@H]12 ... 0 (no)
CC[C@H]1[C@@H](O)[C@@H]2[C@H](CC[C@]3(C)[C@@H]([C@H](C)CCOc4ncccc4C(=O)O)CC[C@@H]23)[C@@]2(C)CC[C@@H](O)C[C@@H]12 ... 0 (no)
CC[C@H]1[C@@H](O)[C@@H]2[C@H](CC[C@]3(C)[C@@H]([C@H](C)CCOc4ccc(C(=O)O)nc4)CC[C@@H]23)[C@@]2(C)CC[C@@H](O)C[C@@H]12 ... 1 (yes)
CC[C@H]1[C@@H](O)[C@@H]2[C@H](CC[C@]3(C)[C@@H]([C@H](C)CCOc4ccc(C(=O)NS(=O)(=O)C(C)(C)C)cn4)CC[C@@H]23)[C@@]2(C)CC[C@@H](O)C[C@@H]12 ... 1 (yes)
CC[C@H]1[C@@H](O)[C@@H]2[C@H](CC[C@]3(C)[C@@H]([C@H](C)CCCOc4ccc(C(=O)O)cn4)CC[C@@H]23)[C@@]2(C)CC[C@@H](O)C[C@@H]12 ... 1 (yes)
CC[C@H]1[C@@H](O)[C@@H]2[C@H](CC[C@]3(C)[C@@H]([C@H](C)/C=C/c4cccc(C(=O)O)c4)CC[C@@H]23)[C@@]2(C)CC[C@@H](O)C[C@@H]12 ... 0 (no)
CC[C@H]1[C@@H](O)[C@@H]2[C@H](CC[C@]3(C)[C@@H]([C@H](C)CCOc4ccccc4C(=O)O)CC[C@@H]23)[C@@]2(C)CC[C@@H](O)C[C@@H]12 ... 0 (no)
CC[C@H]1[C@@H](O)[C@@H]2[C@H](CC[C@]3(C)[C@@H]([C@H](C)CCOc4ccc(C(=O)Nc5ccccc5)cn4)CC[C@@H]23)[C@@]2(C)CC[C@@H](O)C[C@@H]12 ... 1 (yes)
CC[C@H]1[C@@H](O)[C@@H]2[C@H](CC[C@]3(C)[C@@H]([C@H](C)CCCn4cc(C(=O)O)ccc4=O)CC[C@@H]23)[C@@]2(C)CC[C@@H](O)C[C@@H]12 ... 0 (no)

Does CC[C@H]1[C@@H](O)[C@@H]2[C@H](CC[C@]3(C)[C@@H]([C@H](C)CCOc4cncc(C(=O)O)c4)CC[C@@H]23)[C@@]2(C)CC[C@@H](O)C[C@@H]12 have Emax strictly under 200%?
0 (no)

Does CC[C@H]1[C@@H](O)[C@@H]2[C@H](CC[C@]3(C)[C@@H]([C@H](C)CCOc4ccc(C(=O)NS(=O)(=O)C5CC5)cn4)CC[C@@H]23)[C@@]2(C)CC[C@@H](O)C[C@@H]12 have Emax strictly under 200%?
0 (no)
